Tested on: HCT-15 colon
PROTOCOL DESCRIPTION: NCI tumour cell line growth inhibition, 48 h

- COMPOUND: "CCc1cccc(C(C)CC)c1NC(=O)C(=O)C(CC(=O)Nc1ccc(Cl)c(Cl)c1)C(=O)OC (stereo not drawn)"
  TGI: "> 100 µM"
- COMPOUND: "C[C@@H](Oc1ccc2[nH]nc(/C=C/c3cnn(CCO)c3)c2c1)c1c(Cl)cncc1Cl"
  TGI: "8.38 µM"
- COMPOUND: "[C-]#[N+][C@]12C(=O)[C@H](CCC1(C)C)C(C)(C)[C@H]1C(=O)N(C)c3cccc2c31"
  TGI: "> 100 µM"
- COMPOUND: "CO[C@@]12C[C@H]3[C@@H]([C@@H](O)[C@@H](OC(=O)/C=C/c4ccccc4)[C@@]4(O)C(C)(C)CCC[C@]34C)[C@@H](C)C1=CC(=O)O2"
  TGI: "19.2 µM"
- COMPOUND: "CCCCCCC#CC#Cc1cccc(=O)o1"
  TGI: "3.64 µM"
- COMPOUND: "CC1(C)N=C(C(=O)c2ccccc2)N(O)C1(O)c1ccccc1 (stereo not drawn)"
  TGI: "> 100 µM"
- COMPOUND: "COc1ccc(/C=C/C(=O)c2cc3c(N)c(C(=O)Nc4ccccc4C)sc3nc2C)cc1"
  TGI: "> 50 µM"
- COMPOUND: "COC(=O)c1ccccc1C1CN=NC12Cc1cc(C)c(C)cc1C2=O (stereo not drawn)"
  TGI: "> 100 µM"
- COMPOUND: "O=[N+]([O-])c1ccc2c(c1)nc(Cc1ccc(Cl)cc1)n2C[C@@H]1CCCN2CCCCC12 (stereo partly drawn)"
  TGI: "37.8 µM"
- COMPOUND: "CSCCC(NC(=O)OCc1ccccc1)P(=O)(O)c1ccccc1 (stereo not drawn)"
  TGI: "> 100 µM"
- COMPOUND: "CCCCCCCCCCCCCC(=O)C(C)N (stereo not drawn)"
  TGI: "4 µM"
- COMPOUND: "C=CCC(N[C@H](CO)c1ccccc1)c1cn(S(=O)(=O)c2ccc(C)cc2)c2ccccc12 (stereo partly drawn)"
  TGI: "60.2 µM"
- COMPOUND: "Cn1nc2ccc3nccc(N(CCO)CCO)c3c2n1"
  TGI: "> 100 µM"
- COMPOUND: "O=C(O)c1cscc1Cc1cccs1"
  TGI: "> 100 µM"
- COMPOUND: "Cc1nc2c(n1CCN(C)C)C(=O)c1ccccc1C2=O"
  TGI: "26 µM"
- COMPOUND: "CCOC(=O)C1=COC(C)(c2ccccc2)CC1=O (stereo not drawn)"
  TGI: "> 100 µM"
- COMPOUND: "O=C(CNc1ncco1)Nc1ccc(S(=O)(=O)c2ccc(NC(=O)CNc3ncco3)cc2)cc1"
  TGI: "5.44 µM"
- COMPOUND: "CC(=O)[C-](C(C)=O)c1ccccc1.CC(=O)[C-](C(C)=O)c1ccccc1.CC[O-].CC[O-].[Ti+4]"
  TGI: "> 100 µM"
- COMPOUND: "CC(C)(CC#N)c1cc(CC(C)(C)c2cc(CC(C)(C)c3cc(C(C)(C)C4(C)OCCO4)no3)no2)no1"
  TGI: "> 100 µM"
- COMPOUND: "CCOC(=O)/C(C[C@H]1OC(C)(C)O[C@@H]1[C@H]1COC(C)(C)O1)=N/O"
  TGI: "> 100 µM"
- COMPOUND: "O=S(=O)(O)c1cc(N=Nc2cc(S(=O)(=O)O)c3cccnc3c2O)ccc1/C=C/c1ccc(N=Nc2cc(S(=O)(=O)O)c3cccnc3c2O)cc1S(=O)(=O)O"
  TGI: "> 100 µM"
- COMPOUND: "Nc1ccc2ccc(NS(=O)(=O)N3CCCCC3)cc2c1"
  TGI: "> 100 µM"
- COMPOUND: "CC1(C)CCCOc2cccc(c2)OCCCC(C)(C)C1=O"
  TGI: "> 100 µM"
